- Assay system: Carbonic anhydrase 2 (Homo sapiens, UniProt P00918)
Assay readout: Ki (µM)

[
  {
    "Smiles string": "NS(=O)(=O)c1cc(C(=O)N/N=C/c2ccc(O)cc2O)c(SCc2ccc(F)cc2)cc1Cl",
    "Unit spec": "µM",
    "Ki": 0.0561
  },
  {
    "Smiles string": "NS(=O)(=O)c1cc(C(=O)N/N=C/c2ccc(Br)cc2O)c(SCc2ccccc2)cc1Cl",
    "Unit spec": "µM",
    "Ki": 0.0411
  }
]

(A) NS(=O)(=O)c1cc(C(=O)N/N=C/c2ccc(O)cc2O)c(SCc2ccccc2)cc1Cl
(B) NS(=O)(=O)c1cc(C(=O)N/N=C/c2ccc(Br)cc2O)c(SCc2ccc(F)cc2)cc1Cl
Could you please tell me which of these two has the higher Ki: A or B ? Please identify the chosen entry by its label.
B

###

- Experimental details: Selectivity index, ratio of IC50 for human HaCaT cells to IC50 for human HeLa cells
- Assay type: toxicity
- Test parameters: HaCaT cells versus HeLa cells, read-out: Ratio IC50
Parameter: selectivity ratio. Scope: all listed entries.
Form rule: numeric answer, no unit written next to it.

Tell me the measured selectivity ratio of NNC(=O)c1cc(S(N)(=O)=O)c(Cl)cc1SCc1ccc(F)cc1 , please.
1.8

Using the record for NS(=O)(=O)c1cc(C(=O)N/N=C/c2ccc(O)cc2O)c(SCc2ccc(F)cc2)cc1Cl , report its selectivity ratio.
1.1

Endpoint output: selectivity ratio of NS(=O)(=O)c1cc(C(=O)N/N=C/c2ccc(Br)cc2O)c(SCc2ccccc2)cc1Cl . Value?
2

Looking for the measured selectivity ratio of NS(=O)(=O)c1cc(C(=O)N/N=C/c2ccc(O)cc2O)c(SCc2ccccc2)cc1Cl , can you help?
2

Sample NS(=O)(=O)c1cc(C(=O)N/N=C/c2ccc(Br)cc2O)c(SCc2ccc(F)cc2)cc1Cl — what was its selectivity ratio?
1.8

###

- System: MCF7
- Experimental details: Antiproliferative activity against human MCF7 cells assessed as reduction in cell proliferation incubated for 48 hrs by MTT assay
- Format: functional, cell-based
- Test parameters: MCF7, 48 h
Assay readout: IC50 (µM)

[
  {
    "Smiles string": "NS(=O)(=O)c1cc(C(=O)N/N=C/c2ccc(Br)cc2O)c(SCc2ccc(F)cc2)cc1Cl",
    "Assay system": "MCF7",
    "IC50 [µM]": 6
  },
  {
    "Smiles string": "NS(=O)(=O)c1cc(C(=O)N/N=C/c2ccc(Br)cc2O)c(SCc2ccccc2)cc1Cl",
    "Assay system": "MCF7",
    "IC50 [µM]": 6
  }
]

###

- Assay system: UniProt P00915
- Sequence (P00915 whole entry): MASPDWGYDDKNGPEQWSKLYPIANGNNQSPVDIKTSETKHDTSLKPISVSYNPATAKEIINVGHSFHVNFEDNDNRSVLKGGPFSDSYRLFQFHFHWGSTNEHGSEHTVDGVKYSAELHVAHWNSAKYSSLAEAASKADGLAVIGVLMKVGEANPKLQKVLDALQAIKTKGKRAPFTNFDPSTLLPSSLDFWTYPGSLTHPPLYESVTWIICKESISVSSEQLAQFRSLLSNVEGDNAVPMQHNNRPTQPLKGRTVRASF
pKi: −log10 of the molar value.
Assay readout: pKi

(P) NS(=O)(=O)c1cc(C(=O)N/N=C/c2ccc(Br)cc2O)c(SCc2ccc(F)cc2)cc1Cl
(Q) NS(=O)(=O)c1cc(C(=O)N/N=C/c2ccc(O)cc2O)c(SCc2ccc(F)cc2)cc1Cl
(R) NS(=O)(=O)c1cc(C(=O)N/N=C/c2ccc(Br)cc2O)c(SCc2ccccc2)cc1Cl
Descending by pKi please, for everything listed above. Note for the reader: the ranking is given by listing the labels in the order requested.
Q, R, P

###

- Test system: HeLa
- Experimental details: cells
- Test parameters: Homo sapiens, 72 h
- Description: Antiproliferative activity against human HeLa cells assessed as reduction in cell proliferation incubated for 72 hrs by MTT assay
pIC50: −log10 of the molar value.
Assay readout: pIC50

[
  {
    "Smiles string": "NS(=O)(=O)c1cc(C(=O)N/N=C/c2ccc(O)cc2O)c(SCc2ccc(F)cc2)cc1Cl",
    "Assay system": "HeLa",
    "pIC50": 4.55
  },
  {
    "Smiles string": "NS(=O)(=O)c1cc(C(=O)N/N=C/c2ccc(Br)cc2O)c(SCc2ccc(F)cc2)cc1Cl",
    "Assay system": "HeLa",
    "pIC50": 4.74
  },
  {
    "Smiles string": "NS(=O)(=O)c1cc(C(=O)N/N=C/c2ccc(O)cc2O)c(SCc2ccccc2)cc1Cl",
    "Assay system": "HeLa",
    "pIC50": 4.54
  }
]

(I) NNC(=O)c1cc(S(N)(=O)=O)c(Cl)cc1SCc1ccc(F)cc1
(II) NS(=O)(=O)c1cc(C(=O)N/N=C/c2ccc(Br)cc2O)c(SCc2ccccc2)cc1Cl
(III) NNC(=O)c1cc(S(N)(=O)=O)c(Cl)cc1SCc1ccccc1
Would you mind ranking these compounds by ascending pIC50? Return the labels ranked in the requested order, please.
III, I, II
(III: 3.46, I: 4.44, II: 4.80)
